Assay conditions: in isopropanol, 288.15 K
Outcome measure: solubility (mole fraction)
// keep it numeric: no unit symbol after the value

Problem: Value lookup for solubility (mole fraction); key = `COC(=O)N(OC)c1ccccc1COc1ccn(-c2ccc(Cl)cc2)n1`
Result: 0.00332

====

Assay conditions: in isopropanol, 303.15 K
Outcome measure: solubility (mole fraction)
Number only, please.

Problem: What does the record list as solubility (mole fraction) for `COC(=O)N(OC)c1ccccc1COc1ccn(-c2ccc(Cl)cc2)n1` ?
Result: 0.0102

====

Assay conditions: in isopropanol, 293.15 K
Outcome measure: solubility (mole fraction)
Lab note: jot the number down without any unit.

Problem: Quick one: solubility (mole fraction) for `COC(=O)N(OC)c1ccccc1COc1ccn(-c2ccc(Cl)cc2)n1` ?
Result: 0.00481
